Please provide measured percent inhibition of viability for the entries that follow.
- System: KAI3 (IL-2 2.5 ng/mL);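 also: normalised to DMSO-only wells as negative and benzethonium chloride as positive control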
- assay-notes: percent inhibition of viability; higher = more inhibition
- measurement-setup: 72 h; 10000 nM
Output spec: scalar in %, unitless text.

Identify measured percent inhibition of viability associated with Cc1sc2c(c1C)C(c1ccc(Cl)cc1)=N[C@@H](CC(=O)OC(C)(C)C)c1nnc(C)n1-2 [(+)JQ1] (max concentration tested 10000 nM)
53.6

Quick one: give measured percent inhibition of viability for O=C(O)CCCCC(CCSCc1ccccc1)SCc1ccccc1 (stereo not given) [CPI-613] (max concentration tested 10000 nM)
13.6

Entry COc1cc(N2CCC(N3CCN(C)CC3)CC2)ccc1Nc1ncnc(Nc2ccccc2S(=O)(=O)C(C)C)n1 [ASP3026] (max concentration tested 10000 nM) needs its percent inhibition of viability filled in; supply it.
42.7

Identify measured percent inhibition of viability associated with c1ccc2c(CCNc3ccc(Nc4ccncc4)cc3)c[nH]c2c1 [Serdemetan] (max concentration tested 10000 nM)
96.4

Fill in percent inhibition of viability for record C=C1C[C@@H]2[C@H](CC[C@]3(C)C(=O)CC[C@@H]23)[C@@]2(C)C=CC(=O)C=C12 [Exemestane] (max concentration tested 10000 nM)
42

Identify the reported percent inhibition of viability for the following entry. N#Cc1ccc(COC[C@H]2O[C@@H](n3c(NCc4ccc(Cl)c(Cl)c4)nc4c(N)ncnc43)[C@H](O)[C@@H]2O)cc1 (max concentration tested 10000 nM)
34.8

Please report the measured percent inhibition of viability for COc1c(C)cnc(Cn2cnc3c(Cl)nc(N)nc32)c1C [BIIB021] (max concentration tested 10000 nM)
102

Give percent inhibition of viability for the following molecule: COc1cc2c(NC3CCN(C(C)C)CC3)nc(N3CCC(F)(F)CC3)nc2cc1OCCCN1CCCC1 [UNC0642] (max concentration tested 10000 nM)
103

Give recorded percent inhibition of viability. Cc1ccc(NC(=O)c2ccc(CN3CCN(C)CC3)cc2)cc1Nc1nc(-c2cccnc2)cs1 [Masitinib] (max concentration tested 10000 nM)
96.5

Kindly indicate its recorded percent inhibition of viability. Item: Nc1ccccc1NC(=O)c1ccc(CNC(=O)OCc2cccnc2)cc1 [Entinostat] (max concentration tested 10000 nM)
94

Input COCC(=O)NC/C=C/c1ccc2ncnc(Nc3ccc(Oc4ccc(C)nc4)c(C)c3)c2c1 (max concentration tested 10000 nM) , output reported percent inhibition of viability.
64.8

Write down percent inhibition of viability measured for item Nc1nc(F)nc2c1ncn2[C@@H]1O[C@H](CO)[C@@H](O)[C@@H]1O [Fludarabine] (max concentration tested 10000 nM)
97.9

Retrieve percent inhibition of viability measured for O=c1[nH]cc(F)c(=O)[nH]1 [Fluorouracil] (max concentration tested 10000 nM) and print it.
49.3

Determine from records and report percent inhibition of viability for Nc1cc(C(F)(F)F)c(-c2cc(N3CCOCC3)nc(N3CCOCC3)n2)cn1 [Buparlisib] (max concentration tested 10000 nM)
74.8

Let me know recorded percent inhibition of viability for COc1ccc(C2=N[C@@H](c3ccc(Cl)cc3)[C@@H](c3ccc(Cl)cc3)N2C(=O)N2CCNC(=O)C2)c(OC(C)C)c1 [Nutlin-3] (max concentration tested 10000 nM) , thanks.
60.6
